# PROTOCOL_DETAILS: qHTS Assay for Agonists of the Thyroid Stimulating Hormone Receptor: Activators of Intracellular cAMP Concentrations in Parental HEK 293; further: nearly all actives have a fitted effect of over 55% in size; on activation: % of control where 0% means no effect
# CONDITION: parental HEK293 CNG cAMP sensor, membrane potential fluorescence; series mostly up to 57.1 µM
Among all 73,000 compounds or so, about 1,800 (2.5%) were called active. Roughly 13% stayed inconclusive and do not appear here. The call rests on the fitted dose curve; in most records, active means well fitted activation curve with a large enough effect; inconclusive means small, poorly fitted or top-dose-only effect; inactive means no such curve, though single readings can be large or run the other way. Many of the other results were omitted from the sample, so actives are more common in it than they were.
Classes used: YES (active), NO (inactive)

> print(dat)
                                    compound  classification
 1     Brc1cc(Br)c(Oc2cc(Br)c(Br)cc2Br)cc1Br              NO
 2  COc1ccc(-c2nnc(SCC(=O)c3ccco3)n2-c2ccccc2)cc1              NO
 3  c1ccc(-c2oc3ncnc(N4CCOCC4)c3c2-c2ccccc2)cc1             YES
 4  COc1ccc(C(=O)CSc2nnc(COc3ccccc3)n2Cc2ccco2)cc1             YES
 5  O=C(CSc1nnc(-c2cccnc2)n1Cc1ccco1)c1ccc(Cl)cc1              NO
 6  O=C(Nc1nnc(CCc2ccccc2)s1)C1CCCO1 (centres undefined)              NO
 7    CSc1nnc(CNC(=O)c2ccccc2)n1-c1ccc(F)cc1              NO
 8    Cc1ccccc1-c1nc(N(C)Cc2ccco2)c2ccccc2n1             YES
 9  CC(C)CC1(C(=O)NCc2ccccn2)C=CCN1C(=O)c1ccccc1 (centres undefined)             YES
10  CCn1c(CNc2ccc(OC)cc2)nnc1SCC(=O)c1ccc(OC)cc1              NO
11  Cc1ccc(S(=O)(=O)NCC(=O)OCC(=O)N2CCc3ccccc32)cc1              NO
12  COc1ccc(NC(=O)CSc2nnc(-c3cccs3)n2Cc2ccco2)cc1OC              NO
13  CC(=O)N1[C@H](C)C=C[C@]1(Cc1ccccc1)C(=O)NCc1ccccn1              NO
14  CCOC(=O)CCC(=O)OCC(=O)NC(C)C1CC2CCC1C2 (centres undefined)              NO
15  N#Cc1nc(-c2ccc(OCc3ccccc3)cc2)oc1NCCCN1CCOCC1              NO
16  O=C(CSc1nnc(-c2cccs2)n1-c1ccccc1)NCc1ccco1              NO
17  COC(=O)C1(C)C=CCN1C(=O)c1ccccc1 (centres undefined)              NO
18         N#Cc1nc(COc2ccc(Cl)cc2)oc1N1CCCC1             YES
19  COC(=O)c1ccc(COC(=O)c2c(C)nn(Cc3ccccc3Cl)c2Cl)o1             YES
20                c1ccc(-n2nnnc2N2CCOCC2)cc1              NO
21   Cc1ccc(-c2nn(CC(C)(C)C)c3ncnc(N)c23)cc1              NO
22              CN(Cc1ccco1)c1ncncc1-c1ccoc1              NO
23  CCOC(=O)c1ccc(COC(=O)c2cc(=O)[nH]c3ccccc23)o1              NO
24             Cc1ccc2nc(S(=O)(=O)O)[nH]c2c1              NO

* * *

# PROTOCOL_DETAILS: qHTS Assay for Agonists of the Thyroid Stimulating Hormone Receptor: Activators of Intracellular cAMP Concentrations in Parental HEK 293; further: nearly all actives have a fitted effect of over 55% in size; on activation: % of control where 0% means no effect
# CONDITION: parental HEK293 CNG cAMP sensor, membrane potential fluorescence; series mostly up to 57.1 µM
Out of some 73,000 compounds screened, about 1,800 (2.5%) were called active. About 13% were inconclusive and are not listed. The call rests on the fitted dose curve; in most records, active means well fitted activation curve with a large enough effect; inconclusive means small, poorly fitted or top-dose-only effect; inactive means no such curve, though single readings can be large or run the other way. Shown is part of a subset that was picked to be rich in actives.
Classes used: active, inactive

> print(dat)
                                 test.smiles  classification
 1  c1ccc(CSc2nnc(-c3ccco3)c(-c3ccco3)n2)cc1        inactive
 2             COc1ccccc1CNc1ncncc1-c1cccnc1        inactive
 3               c1ccc(COc2nsnc2N2CCOCC2)cc1        inactive
 4         CCCCOc1ccc(-c2nnc(-c3ccco3)o2)cc1          active
 5     O=C(NCCc1ccc2c(c1)OCCO2)c1cc2ccccc2o1          active
 6   Cc1ccc(N2CCN(c3ccc(C)cc3)C2c2ccccn2)cc1        inactive
 7  Cc1ccccc1NC(=O)c1cc(S(=O)(=O)N2CCOCC2)cs1        inactive
 8        Cn1c(/C(C#N)=C2/CCCCCN2)nc2ccccc21        inactive
 9   COCCCNC(=O)CCc1nc2cccnc2n1Cc1ccc(OC)cc1        inactive
10         Cc1ccccc1NC(=O)CNc1ccccc1N1CCCCC1        inactive
11  Cc1cc(C)n(C(=O)c2ccc(C)c(S(=O)(=O)N3CCOCC3)c2)n1        inactive
12     COc1ccc(CNc2ncncc2-c2ccccc2OC)c(OC)c1          active

* * *

# PROTOCOL_DETAILS: qHTS Assay for Agonists of the Thyroid Stimulating Hormone Receptor: Activators of Intracellular cAMP Concentrations in Parental HEK 293; further: nearly all actives have a fitted effect of over 55% in size; on activation: % of control where 0% means no effect
# CONDITION: parental HEK293 CNG cAMP sensor, membrane potential fluorescence; series mostly up to 57.1 µM
Out of some 73,000 compounds screened, about 1,800 (2.5%) were called active. Roughly 13% stayed inconclusive and do not appear here. The call rests on the fitted dose curve; in most records, active means well fitted activation curve with a large enough effect; inconclusive means small, poorly fitted or top-dose-only effect; inactive means no such curve, though single readings can be large or run the other way. What follows is part of a selection rich in actives, with near analogues and random picks from the rest.
Classes used: 1 = active, 0 = inactive

> print(dat)
                                    molecule  classification
 1                          O=C(O)CCCCC(=O)O               0
 2  CS(=O)(=O)N1CCN(C(=O)c2cc3ccccc3oc2=O)CC1               0
 3  CC(C)NC(=O)CCCn1c(=S)[nH]c2cc3c(cc2c1=O)OCO3               0
 4  CC[C@@H]1Cc2cc(O)ccc2C2=C1c1ccc(O)cc1C[C@H]2CC               1
 5  COc1cccc(Cn2c(=O)c(C)nc3cnc(Oc4ccccc4)nc32)c1               1
 6   COc1ccccc1Oc1ccc(S(=O)(=O)Nc2cccnc2)cc1               0
 7  COc1cccc(Cn2c(=O)c(-c3ccccc3)nc3cnc(OC)nc32)c1               0
 8                              Cc1ccnc(N)c1               0
 9  O=C(Nc1c(-c2ccccc2)nc2c(Br)cc(Br)cn12)c1ccco1               1
10  CN(C)CCCCNC(=O)c1ccc(Cc2nc3ccccc3[nH]2)cc1               0
11     CN1CCC2(CC1)CCN(S(=O)(=O)c1ccccc1)CC2               1
12  COCCn1c(CN2CCC(Cc3ccccc3)CC2)nc2c1c(=O)n(C)c(=O)n2C               0
13       CCc1c(C)sc(NC(=O)OC)c1C(=O)N1CCOCC1               0
14  CCc1ccc(NC(=O)CSc2nnc(-c3cnccn3)n2Cc2ccco2)cc1               0
15  COc1ccc(C2C(C#N)=C(N)Oc3n[nH]c(C)c32)cc1CN1CCN(c2ccc(F)cc2)CC1 (stereo not drawn)               0
16           COC(=O)c1oc2ccc(Br)cc2c1NC(C)=O               0
17  COc1cc(Cl)c(C)cc1NC(=O)CSc1nnc(-c2cccnc2)n1Cc1ccco1               0
18  O=C(NCc1ccco1)c1cc(-c2cccnc2)nc2ccc(Cl)cc12               1
19  O=C1c2ccccc2C(O)N1Cc1ccccc1Cl (stereo not drawn)               0
20          O=C(Nc1ccc(Oc2ccccc2)cc1)c1ccco1               0
21  O=C(Nc1cccc(NC(=O)N2CCN(c3ccccc3)CC2)c1)N1CCN(c2ccccc2)CC1               0
22  CC1CCN(Cc2nc3c(c(=O)n(C)c(=O)n3C)n2CCc2ccccc2)CC1               1
23  O=C(c1cccc(F)c1)N1CCC2(CC1)CCN(c1ccccc1)CC2               0

* * *

# PROTOCOL_DETAILS: qHTS Assay for Agonists of the Thyroid Stimulating Hormone Receptor: Activators of Intracellular cAMP Concentrations in Parental HEK 293; further: nearly all actives have a fitted effect of over 55% in size; on activation: % of control where 0% means no effect
# CONDITION: parental HEK293 CNG cAMP sensor, membrane potential fluorescence; series mostly up to 57.1 µM
The campaign covered roughly 73,000 compounds. About 1,800 (2.5%) were called active. About 13% were inconclusive and are not listed. Calls come from the whole dose curve; as a rule, active = well fitted activation curve with a large enough effect; inconclusive = small, poorly fitted or top-dose-only effect; inactive = no such curve, though single readings can be large or run the other way. The entries come from a sample that favours actives as a whole.
Classes used: TRUE (active), FALSE (inactive)

> print(dat)
                                    compound  classification
 1  Cc1cc(/C=N/n2cnnc2)c(C)n1-c1cccc(C(=O)O)c1           FALSE
 2  N#Cc1cc2[nH]c(=O)c(=O)[nH]c2cc1[N+](=O)[O-]           FALSE
 3          Cn1c(SCC(=O)c2cccs2)nnc1-c1ccco1           FALSE
 4      CCc1ccc(-c2nnn(Cc3nc4ccccc4s3)n2)cc1            TRUE
 5  CN1CCC(CNC(=O)c2ccc(-n3c(=O)c(=O)[nH]c4ccccc43)cc2)CC1           FALSE
 6    COc1ccc(-c2nn3c(-c4ccccc4)nnc3s2)cc1OC           FALSE
 7  c1ccc(-c2cc(-c3nnc4sc(-c5ccccn5)nn34)[nH]n2)cc1            TRUE
 8  COC(=O)c1ccc(C2C3=C(Nc4nnnn42)c2ccccc2OC3)cc1 (stereo not drawn)            TRUE
 9        N[C@@H](C(=O)O)c1ccc(P(=O)(O)O)cc1           FALSE
10                 Fc1ccc(Br)cc1/C=N/n1cnnc1           FALSE
11  COC(=O)[C@@H](NC(=O)NCc1cccc(OC)c1)C(C)C           FALSE
12                O=P(O)(CN1CCCCC1)CN1CCCCC1           FALSE
13  Cc1cc2nc3c(=O)[nH]c(=O)nc-3n(C[C@H](O)[C@H](O)[C@H](O)CO)c2cc1C           FALSE

Data origin: PubChem BioAssay AID938
